# Remaining Percentage values compiled below
Test: Stability in PBS pH 6.5
Conditions: Table 8, 30 min
ATTRIBUTE MEASURED: Remaining Percentage

>>> df
                                   molecule  result
0  CC(OC(=O)n1cc(CCN(C)C)c2ccccc21)OC(=O)C(C)(C)C (racemic)  96.93%
1  CC(OC(=O)C(C)C)OC(=O)n1cc(CCN(C)C)c2ccccc21 (stereo not shown)  92.62%
2  O=C(O)CCCc1ccc(N(CCCl)CCCl)cc1 [Chlorambucil, reference compound]  64.51%
3          CCCCC(=O)Oc1cccc2ccn(CCN(C)C)c12  96.32%
